method summary: Inhibition of [125I]L-T3 binding to rat hepatic 3,5,3''-triiodo-L-thyronine receptor
pIC50: −log10 of the molar value.
measured quantity: pIC50

// below: answered compounds
IN: Look up pIC50 for this compound: Cc1cc(NC(=O)C(=O)O)cc(C)c1Oc1cccc(-c2ccccc2)c1
OUT: 7.49

IN: Now give it for Cc1cc(NC(=O)C(=O)O)cc(C)c1Oc1ccc(O)c(-c2ccccc2Cl)c1 too.
OUT: 9.77

IN: # repeat for Cc1cc(NC(=O)C(=O)O)cc(C)c1Oc1ccc(O)c(-c2ccccc2)c1
OUT: 8.72

IN: Note, next up: Cc1cc(NC(=O)C(=O)O)cc(C)c1Oc1ccc(O)c(C2CCCCC2)c1
OUT: 8.66

IN: Now try Cc1ccc(-c2cc(Oc3c(C)cc(NC(=O)C(=O)O)cc3C)ccc2O)cc1 .
OUT: 8.05

(I) Cc1cc(Oc2c(C)cc(NC(=O)C(=O)O)cc2C)ccc1O
(II) Cc1cc(NC(=O)C(=O)O)cc(C)c1Oc1ccc(O)c(-c2ccc(C(F)(F)F)cc2)c1
(III) Cc1cc(NC(=O)C(=O)O)cc(C)c1Sc1ccc(O)c(C2CCCCC2)c1
IN: Arrange the 3 compounds by rising pIC50, starting with the smallest. To answer, arrange all of the labels according to the requested order.
OUT: II, I, III

###

method summary: Inhibition of [125I]L-T3 binding to rat hepatic 3,5,3''-triiodo-L-thyronine receptor
measured quantity: IC50 (nM)

// solved cases for IC50 follow
IN: Any idea what IC50 was measured for Cc1cc(NC(=O)C(=O)O)cc(C)c1Oc1ccc(O)c(-c2cccc(C(F)(F)F)c2)c1 ?
OUT: 0.92

IN: What would you report for CCc1cc(Oc2c(C)cc(NC(=O)C(=O)O)cc2C)ccc1O ?
OUT: 0.25

IN: What would you report for Cc1cc(NC(=O)C(=O)O)cc(C)c1S(=O)(=O)c1ccc(O)c(C2CCCCC2)c1 ?
OUT: 1.9

(A) Cc1cc(NC(=O)C(=O)O)cc(C)c1Oc1ccc(O)c(-c2cccc(Cl)c2)c1
(B) Cc1cc(NC(=O)C(=O)O)cc(C)c1Oc1ccc(O)c(-c2cccc(F)c2)c1
IN: Hi team, can someone confirm which has the larger IC50: A or B ? Thanks. Selection: enter the item's label.
OUT: B
(B: 1.9 nM, A: 0.64 nM)
